Molecular target: human antibody (gamma globulin preparation, manufactured by The Chemo-Sero-Therapeutic Research Institute) (human)
Assay: ELISA; human gamma globulin immobilised; acid treatment 50 mM buffer pH 3.2, 25 C, 5 min; elution rate = 1 - remaining binding activity
Entries annotated with measured Elution rate [%]

| Binder | Elution rate [%] (%) |
| --- | --- |
| FpL_C3KX 7e amino acid substitution mutant Glu34Leu (designed binder) ETPGESAEEVTIRVNLIFADGRIQTAEFIGTFELATAEAYAYANLLARDYGEFTADLEDGGYTINIRFVGHHHHHH | 51 |
| FpL_C3KX 7e (designed binder) ETPGESAEEVTIRVNLIFADGRIQTAEFIGTFEEATAEAYAYANLLARDYGEFTADLEDGGYTINIRFVGHHHHHH | 26 |
| FpL_C3KX 7e amino acid substitution mutant Glu34Val (designed binder) ETPGESAEEVTIRVNLIFADGRIQTAEFIGTFEVATAEAYAYANLLARDYGEFTADLEDGGYTINIRFVGHHHHHH | 29 |
| FpL_C3KX 7e amino acid substitution mutant Glu34Asp (designed binder) ETPGESAEEVTIRVNLIFADGRIQTAEFIGTFEDATAEAYAYANLLARDYGEFTADLEDGGYTINIRFVGHHHHHH | 46 |
| FpL_C3KX 7e amino acid substitution mutant Asn15Val (designed binder) ETPGESAEEVTIRVVLIFADGRIQTAEFIGTFEEATAEAYAYANLLARDYGEFTADLEDGGYTINIRFVGHHHHHH | 29 |
| FpL_C3KX 7e amino acid substitution mutant Glu34Phe (designed binder) ETPGESAEEVTIRVNLIFADGRIQTAEFIGTFEFATAEAYAYANLLARDYGEFTADLEDGGYTINIRFVGHHHHHH | 64 |
